Target: CK2α/CK2β interaction (human CK2α1–335, human CK2β1–193) (Homo sapiens)
Construct: human CK2α^1–335
Sequence (P68400 1-335): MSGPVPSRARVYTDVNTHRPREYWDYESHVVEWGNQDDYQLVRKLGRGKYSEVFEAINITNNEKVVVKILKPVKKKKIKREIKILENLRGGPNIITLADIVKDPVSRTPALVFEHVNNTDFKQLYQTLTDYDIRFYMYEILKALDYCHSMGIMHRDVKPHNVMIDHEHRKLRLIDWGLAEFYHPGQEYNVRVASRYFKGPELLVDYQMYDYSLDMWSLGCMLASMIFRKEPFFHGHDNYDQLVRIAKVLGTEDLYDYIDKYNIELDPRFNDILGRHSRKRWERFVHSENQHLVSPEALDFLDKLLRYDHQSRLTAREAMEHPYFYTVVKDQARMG
Experiment: Microscale thermophoresis (MST) assay of the CK2α/CK2β subunit interaction
# if measured Kd < 90 nM: 1  # else: -1

Compound | System | Label Class
CCOC(=O)[C@H]1c2[nH]c3ccccc3c2[C@H](c2ccc(N)cc2)[C@@H]2C(=O)NC(=O)[C@@H]21 (racemic) [(±)-22a] | CK2α/CK2β interaction (human CK2α1–335, human CK2β1–193) (Homo sapiens) | 1
COc1cc([C@@H]2c3c([nH]c4ccccc34)[C@@H](C(=O)Nc3nc4ccccc4[nH]3)[C@@H]3C(=O)NC(=O)[C@H]23)cc(OC)c1OC (racemic) [(±)-17] | CK2α/CK2β interaction (human CK2α1–335, human CK2β1–193) (Homo sapiens) | -1
COc1cc([C@@H]2c3c([nH]c4ccccc34)[C@@H](C(=O)NCc3ccccc3)[C@@H]3C(=O)NC(=O)[C@H]23)cc(OC)c1OC (racemic) [(±)-12] | CK2α/CK2β interaction (human CK2α1–335, human CK2β1–193) (Homo sapiens) | 1
COc1cc([C@@H]2c3c([nH]c4ccccc34)[C@@H](C(=O)O)[C@@H]3C(=O)NC(=O)[C@H]23)cc(OC)c1OC (racemic) [(±)-10] | CK2α/CK2β interaction (human CK2α1–335, human CK2β1–193) (Homo sapiens) | -1
CCOC(=O)[C@@H]1c2[nH]c3ccccc3c2[C@@H](c2ccc(NC(=O)c3ccc(OC)cc3)cc2)[C@H]2C(=O)N(Cc3ccccc3)C(=O)[C@H]21 (racemic) [(±)-23] | CK2α/CK2β interaction (human CK2α1–335, human CK2β1–193) (Homo sapiens) | 1
